# system: T1, C5a receptor (C5aR) expressed on the surface of human PMNs (human, UniProt P21730 1-350)
# T1 construct: whole, on cells; Endogenous receptor on intact human polymorphonuclear cells; also called C5aRs
# T1 sequence (looked up): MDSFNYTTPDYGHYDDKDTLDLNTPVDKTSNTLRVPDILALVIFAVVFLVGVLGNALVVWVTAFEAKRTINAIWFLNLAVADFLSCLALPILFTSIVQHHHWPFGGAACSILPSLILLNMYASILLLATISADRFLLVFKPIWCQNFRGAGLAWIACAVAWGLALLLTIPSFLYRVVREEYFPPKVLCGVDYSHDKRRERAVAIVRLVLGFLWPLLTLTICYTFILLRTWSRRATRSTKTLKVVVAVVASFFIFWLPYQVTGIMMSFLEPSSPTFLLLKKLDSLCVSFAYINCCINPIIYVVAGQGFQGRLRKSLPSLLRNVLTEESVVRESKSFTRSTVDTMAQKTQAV
# assay.remarks: competition with 125I-C5a on intact human PMNs (column headed EC50; 50% inhibition of 125I-C5a binding)
Where no end group is shown, it is not given here. [ ]: non-standard residue; d: D form.
Field: IC50. Provide a value for each of the binders that follow.
Answer format: numeric, µM implied, no suffix.

I would be grateful if you could share the reported IC50 for YSFKPMPL[dA]RRRIPQSLDSWWTSL (Synthetic peptide) [YSFKPMPLa[…] (C5a-inactive construct, C-terminus of agonist blocked by the HBsAg CTL epitope)] .
465

What would you report for IPQSLDSWWTSLYSFKPMPL[dA]R (Synthetic peptide; also called C5a-active construct without linker) [IPQSLDSWWTSLYSFKPMPLaR (HBsAg CTL epitope attached directly to N-terminus of the C5a agonist)] ?
3.69

What would you report for IPQSLDSWWTSLRRYSFKPMPL[dA]R (Synthetic peptide; also called RR-containing construct) [IPQSLDSWWTSLRRYSFKPMPLaR (double-Arg-linked C5a-active construct)] ?
0.416

What would you report for YSFKPMPL[dA]R (Synthetic peptide; also called C5a agonist; peptide (2)) [C5a C-terminal decapeptide agonist analog YSFKPMPLaR] ?
2.34

Measured values drawn from patent US20070031445A1 for this set.
